target: Tau-FynSH3 interaction (Homo sapiens (Human), UniProt P10636); assay: Tau-FynSH3 AlphaScreen; assay type: binding; conditions: Table 2; Tau-FynSH3 inhibitory activity in the AlphaScreen; read-out: IC50
Sequence (P10636 other isoform, or with tags, fused parts or gaps): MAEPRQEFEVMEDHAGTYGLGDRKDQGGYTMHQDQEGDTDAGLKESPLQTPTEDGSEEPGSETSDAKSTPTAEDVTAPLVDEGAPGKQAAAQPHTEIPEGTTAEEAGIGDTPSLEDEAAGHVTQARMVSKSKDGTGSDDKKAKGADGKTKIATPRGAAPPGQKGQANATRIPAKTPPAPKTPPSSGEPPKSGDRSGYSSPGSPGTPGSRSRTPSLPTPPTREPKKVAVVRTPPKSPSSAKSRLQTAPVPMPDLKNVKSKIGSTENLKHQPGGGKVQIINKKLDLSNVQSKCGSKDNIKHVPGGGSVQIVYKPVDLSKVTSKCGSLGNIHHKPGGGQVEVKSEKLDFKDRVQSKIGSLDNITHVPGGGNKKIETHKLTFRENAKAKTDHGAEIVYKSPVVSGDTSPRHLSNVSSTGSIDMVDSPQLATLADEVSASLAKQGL
pIC50: −log10 of the molar value.
Measure name: pIC50

> print(dat)
                              record.smiles  qualifier.operator  obs.value
1  O=C(CN1CCOc2ccccc21)Nc1nnc(-c2ccccn2)[nH]1                   =       6.49
2  O=C(CCN1C(=O)CCc2ccccc21)Nc1nnc(-c2ccccn2)[nH]1                   <       4.00
3  O=C(CN1CCSc2ccccc21)Nc1nnc(-c2ccccn2)[nH]1                   =       6.26
4  Cc1ccc2c(c1)SCC(=O)N2CC(=O)Nc1nnc(-c2ccccn2)[nH]1                   =       6.10
5  O=C(CCN1C(=O)CSc2ccccc21)Nc1ccc(-n2cncn2)cc1                   <       4.00
6  O=C(CN1C(=O)CSc2cc(F)ccc21)Nc1nnc(-c2ccccn2)[nH]1                   =       6.00
7   O=C(CN1CCSc2ccccc21)Nc1ncc(-c2ccccn2)o1                   <       4.00
8  O=C(CCN1C(=O)CSc2ccccc21)Nc1nnc(-c2ccccn2)[nH]1                   =       5.30
9  O=C(CN1CCCc2ccccc21)Nc1nnc(-c2ccccn2)[nH]1                   =       5.90
